Target: T1, recombinant H3-HA, A/Brisbane/10/2007 (H3N2) (Influenza A virus A/Brisbane/10/2007 …, UniProt A8W8K8, strain)
T1 construct: source: bought: Protein Sciences
Assay: SPR; data not shown: sdAbs on immobilised recombinant H3-HA and H7-HA
Settings: both partners purified

binder | binding result
R1a-E5 (VHH, source: E. coli WK6 periplasm, purified (Talon IMAC, Superdex 75 SEC)) VHH: QLQLVESGGGLVQPGGSLRLSCTASGFSLDNYAIGWFRRAPGEEREGVSFITSTSAVTKYADSVKGRFTISRDNAKNTVYLQMTSLKPEDTAVYYCAGTRWVPTMKADEYNYWGQGTQVTVSS | no binding
R2a-G9 (VHH, source: E. coli WK6 periplasm, purified (Talon IMAC, Superdex 75 SEC)) VHH: QVQLVESGGGLVQPGGSLRLSCAASDNIFSFYTMGWYRQSPGKERELVAVIGNGGNTNYADSVKGRFTISRDNGKNKAHLQMNSLKPEDTAVYYCKASGPGGVEVWGQGTQVTVSS | no binding
R2a-G8 (VHH, source: E. coli WK6 periplasm, purified (Talon IMAC, Superdex 75 SEC)) VHH: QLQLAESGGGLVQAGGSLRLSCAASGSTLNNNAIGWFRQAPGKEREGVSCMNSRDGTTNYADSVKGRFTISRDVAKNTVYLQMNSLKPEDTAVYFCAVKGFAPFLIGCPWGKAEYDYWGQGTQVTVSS | no binding
